src = ChEMBL document CHEMBL3046076

Target: Alpha-1A adrenergic receptor (Homo sapiens, UniProt P35348)
Sequence (P35348 whole entry): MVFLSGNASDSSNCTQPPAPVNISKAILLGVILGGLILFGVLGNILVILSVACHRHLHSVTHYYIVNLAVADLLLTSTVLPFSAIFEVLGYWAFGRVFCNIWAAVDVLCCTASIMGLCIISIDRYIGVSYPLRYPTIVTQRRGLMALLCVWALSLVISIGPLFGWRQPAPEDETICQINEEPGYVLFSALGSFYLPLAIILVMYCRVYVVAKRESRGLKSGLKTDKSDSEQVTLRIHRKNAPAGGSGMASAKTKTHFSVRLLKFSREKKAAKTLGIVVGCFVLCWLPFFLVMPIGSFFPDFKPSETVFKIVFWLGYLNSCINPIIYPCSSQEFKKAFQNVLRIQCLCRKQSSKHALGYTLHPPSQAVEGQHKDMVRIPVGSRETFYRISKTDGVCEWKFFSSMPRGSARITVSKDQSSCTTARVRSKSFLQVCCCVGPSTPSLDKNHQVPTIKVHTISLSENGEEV
Assay: Binding affinity to adrenergic alpha1A receptor (unknown origin)
Conditions: read-out: Ki
assay readout: Ki (nM)

These solved cases illustrate the format of a correct answer.
> print(dat)
                                   compound  value
1  COc1ccccc1OCCNC1COC(c2ccccc2)(c2ccccc2)CO1 (stereo unspecified)   74.1
2  COc1cccc(OC)c1OCCN[C@H]1CO[C@H](c2ccccc2)CO1    513
3  CC(CN1CCN(c2cc(Cl)ccc2Cl)CC1)N1C(=O)CC2(CCCC2)CC1=O (stereo unspecified)    149

(1) COc1cc2nc3c(c(N)c2cc1OC)CC(CNC(=O)c1ccoc1)C3 (stereo unspecified)
(2) N#Cc1ccc(Cl)cc1N1CCN(CCN2C(=O)CC3(CCCC3)CC2=O)CC1
(3) COc1ccccc1N1CCN(CCN2C=CC3(CCCC3)CC2=O)CC1
Order the records so the highest Ki appears first and the lowest last. Please list the labels according to the requested order.
2, 1, 3
(2: 403 nM, 1: 158 nM, 3: 23.4 nM)

###

target: Alpha-1A adrenergic receptor (Homo sapiens); assay: Binding affinity to adrenergic alpha1A receptor (unknown origin); conditions: read-out: pKi (converted)
assay readout: Ki (nM)

(1) CC(CN1CCN(c2cc(Cl)ccc2Cl)CC1)N1C(=O)CC2(CCCC2)CC1=O (stereo not given)
(2) N#Cc1ccc(Cl)cc1N1CCN(CCN2C(=O)CC3(CCCC3)CC2=O)CC1
Pick one: 1 or 2 . Which one has the lower reported Ki? // output: label of the selected item
1

(I) COc1cc2nc3c(c(N)c2cc1OC)CCC(CNC(=O)c1ccoc1)C3 (stereo not given)
(II) O=C1CC2(C=CN1CCN1CCN(c3ccccc3Cl)CC1)CCCC2
Pick one: I or II . Which one has the lower reported Ki? // output: label of the selected item
II

###

biological target: UniProtKB P35348; experiment: Binding affinity to adrenergic alpha1A receptor (unknown origin); settings: read-out: Ki
assay readout: Ki (nM)

These solved cases illustrate the format of a correct answer.
> print(dat)
                                   compound  endpoint.unit  value
1  COc1cccc(OC)c1OCCN[C@H]1C[C@H](c2ccccc2)c2ccccc2S1             nM   2.34
2  COc1ccccc1N1CCN(CC2COC3(CCCCC3)O2)CC1 (centres undefined)             nM   91.2
3  O=C1CC2(CCCC2)CCN1CCN1CCN(c2ccccc2Cl)CC1             nM     70
4  COc1ccccc1N1CCN(CC2CO[C@H](c3cccc4ccccc34)O2)CC1 (some centres undefined)             nM   7.94
5  COc1ccccc1N1CCN(CC2CO[C@H](c3ccccc3)O2)CC1 (some centres undefined)             nM   28.8

(P) N#Cc1ccccc1N1CCN(CCN2C(=O)CC3(CCCC3)CC2=O)CC1
(Q) O=C1CC2(CCCC2)C(=O)N1CCN1CCN(c2cc(Cl)ccc2Cl)CC1
Pick one: P or Q . Which one has the lower reported Ki? // output: label of the selected item
Q
